In this section we review reported IC50 values for a set of molecules.
Test system: IMR90
Experiment: Cancer cell growth inhibition
Type: cell-based
Settings: Homo sapiens, IMR-90; IMR90 (lung), 72 hr treatment

Prompt: Read off the recorded IC50 for CC(C)(O)Cc1cc(-c2csc(-c3ccc(NS(C)(=O)=O)cc3Cl)c2)ccn1
Response: > 10 µM

Prompt: Read off the recorded IC50 for CS(=O)(=O)Nc1ccc(-c2cc(-c3ccnc4c3OCCO4)cs2)c(Cl)c1
Response: > 10 µM

Prompt: Read off the recorded IC50 for CC(C)(CO)c1cc(-c2csc(-c3ccc(NS(C)(=O)=O)cc3Cl)c2)ccn1
Response: > 10 µM

Each recorded value in this set is attributed to patent US20220056018A1.
